- measured-target: Nav1.7 (or SCN9A) channel; HEK cells stably transfected with hSCN9A (Homo sapiens, UniProt Q15858)
- Construct: expressed in transfected cells
- Sequence (Q15858 whole entry): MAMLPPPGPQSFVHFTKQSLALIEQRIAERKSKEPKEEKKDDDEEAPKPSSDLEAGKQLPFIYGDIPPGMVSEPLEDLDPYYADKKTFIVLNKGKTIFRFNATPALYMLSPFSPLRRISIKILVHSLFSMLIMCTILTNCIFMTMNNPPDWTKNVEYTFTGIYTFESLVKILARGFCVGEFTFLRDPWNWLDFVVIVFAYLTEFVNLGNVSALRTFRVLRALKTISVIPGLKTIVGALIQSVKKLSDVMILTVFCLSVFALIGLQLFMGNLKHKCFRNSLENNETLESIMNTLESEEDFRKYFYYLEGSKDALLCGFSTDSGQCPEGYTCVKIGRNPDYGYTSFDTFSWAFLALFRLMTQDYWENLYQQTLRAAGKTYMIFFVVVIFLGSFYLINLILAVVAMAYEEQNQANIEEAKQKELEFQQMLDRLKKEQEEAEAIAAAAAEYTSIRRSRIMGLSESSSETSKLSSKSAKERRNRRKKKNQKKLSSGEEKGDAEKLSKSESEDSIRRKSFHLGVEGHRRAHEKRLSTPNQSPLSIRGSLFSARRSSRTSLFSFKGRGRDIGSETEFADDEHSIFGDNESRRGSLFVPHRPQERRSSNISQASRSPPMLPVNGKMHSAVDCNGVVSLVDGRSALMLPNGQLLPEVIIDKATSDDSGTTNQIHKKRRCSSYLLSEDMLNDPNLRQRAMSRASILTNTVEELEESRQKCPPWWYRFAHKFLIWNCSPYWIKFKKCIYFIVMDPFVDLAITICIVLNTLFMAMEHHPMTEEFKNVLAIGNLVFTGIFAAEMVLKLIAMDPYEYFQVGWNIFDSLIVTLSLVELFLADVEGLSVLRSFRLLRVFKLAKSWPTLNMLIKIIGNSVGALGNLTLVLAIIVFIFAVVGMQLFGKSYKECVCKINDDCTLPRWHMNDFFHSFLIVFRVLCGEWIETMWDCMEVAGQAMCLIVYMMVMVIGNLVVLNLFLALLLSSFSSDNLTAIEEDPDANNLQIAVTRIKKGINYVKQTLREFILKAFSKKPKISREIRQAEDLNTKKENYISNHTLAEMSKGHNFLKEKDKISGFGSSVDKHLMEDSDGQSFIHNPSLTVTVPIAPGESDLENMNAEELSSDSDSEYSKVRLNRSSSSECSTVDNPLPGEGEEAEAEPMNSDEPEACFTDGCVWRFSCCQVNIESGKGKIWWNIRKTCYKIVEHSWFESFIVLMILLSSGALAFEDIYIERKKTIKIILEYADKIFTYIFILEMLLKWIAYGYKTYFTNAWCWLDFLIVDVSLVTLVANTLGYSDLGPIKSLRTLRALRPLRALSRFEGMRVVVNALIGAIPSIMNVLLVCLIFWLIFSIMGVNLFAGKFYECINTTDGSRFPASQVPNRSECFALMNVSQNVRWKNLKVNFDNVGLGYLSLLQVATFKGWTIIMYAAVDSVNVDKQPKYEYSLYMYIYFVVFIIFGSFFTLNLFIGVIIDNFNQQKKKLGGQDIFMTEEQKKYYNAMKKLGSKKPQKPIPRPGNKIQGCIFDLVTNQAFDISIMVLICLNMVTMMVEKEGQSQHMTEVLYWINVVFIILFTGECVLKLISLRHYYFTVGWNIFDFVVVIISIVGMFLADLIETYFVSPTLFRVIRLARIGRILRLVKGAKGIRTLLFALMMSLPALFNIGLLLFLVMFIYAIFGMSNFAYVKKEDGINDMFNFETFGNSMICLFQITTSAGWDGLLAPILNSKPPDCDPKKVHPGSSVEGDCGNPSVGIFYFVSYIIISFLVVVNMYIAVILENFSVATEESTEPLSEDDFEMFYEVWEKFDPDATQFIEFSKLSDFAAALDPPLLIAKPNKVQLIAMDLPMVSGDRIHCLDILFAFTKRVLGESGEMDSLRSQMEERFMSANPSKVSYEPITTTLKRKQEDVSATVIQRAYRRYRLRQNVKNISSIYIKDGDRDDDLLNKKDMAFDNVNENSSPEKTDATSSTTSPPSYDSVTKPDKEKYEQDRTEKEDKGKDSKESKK
- test: Nav1.7 block, PatchXpress 7000 automated whole-cell voltage clamp, estimated IC50 (EIC50)
- Type: cell-based
- test-context: estimated IC50; hSCN9A HEK cells, PatchXpress platform; Examples 283-814
measurement-name: IC50 (nM)

Solved cases below.
N#Cc1cc(S(=O)(=O)Nc2cnc(Cl)nc2)ccc1Oc1ccccc1-c1ccccc1 | 36000
N#Cc1cc(S(=O)(=O)Nc2ncns2)ccc1Oc1ccc(OC(F)(F)F)cc1-c1cn[nH]c1 | 22
Nc1ccc(-c2cc(Cl)ccc2Oc2cc(F)c(S(=O)(=O)Nc3ncns3)cc2F)nc1 | 540
O=S(=O)(Nc1ccncn1)c1ccc(Oc2ccc(Cl)cc2C2CCNCC2)c(Cl)c1 | 170
COCc1cc(Oc2ccc(S(=O)(=O)Nc3nccs3)cc2C#N)ccc1-n1cc(Cl)cn1 | 3800
N#Cc1cc(S(=O)(=O)Nc2nccs2)ccc1Oc1ccc(Cl)cc1-c1cnccn1 | 900

[A] N#Cc1cc(S(=O)(=O)Nc2nccs2)ccc1Oc1ccc(I)cc1-c1cn[nH]c1
[B] Cn1nccc1-c1cc(C(F)(F)F)ccc1Oc1ccc(S(=O)(=O)Nc2nccs2)cc1C#N
[C] O=S(=O)(Nc1ncns1)c1cc(F)c(Oc2cc(Cl)c(F)cc2-c2ccn[nH]2)cc1F
[D] Cc1cc(C(F)(F)F)nn1-c1cccc(Oc2ccc(S(=O)(=O)Nc3nccs3)cc2C#N)c1
[E] N#Cc1cc(S(=O)(=O)Nc2ncns2)ccc1Oc1ccc(I)cc1-c1cn[nH]c1
IN: Put the compounds in ascending order of IC50. Answer with the labels in sequence, matching the requested order.
OUT: C, B, A, E, D

[A] Nc1cc(-c2cc(Cl)ccc2Oc2cc(F)c(S(=O)(=O)Nc3nncs3)cc2Cl)ccn1
[B] N#Cc1cc(S(=O)(=O)Nc2nccs2)ccc1Oc1ccc(Cl)cc1CN1CCC(F)(F)CC1
IN: So which one has the bigger IC50 here, A or B ? // return label of chosen record
OUT: B

###

- measured-target: Nav1.7 (or SCN9A) channel; HEK cells stably transfected with hSCN9A (Homo sapiens, UniProt Q15858)
- Construct: expressed in transfected cells
- test: Nav1.7 block, PatchXpress 7000 automated whole-cell voltage clamp, estimated IC50 (EIC50)
- Format: cell-based
- test-context: PatchXpress platform; hSCN9A HEK cells held at V1/2 of inactivation; estimated IC50
measurement-name: IC50 (nM)

Cc1cnsc1-c1ccccc1Oc1ccc(S(=O)(=O)Nc2nccs2)cc1F | 700
N#Cc1cc(S(=O)(=O)Nc2ncns2)ccc1Oc1cccc(F)c1-c1ccn[nH]1 | 680
Cc1ccc(Oc2ccc(S(=O)(=O)Nc3ncns3)cc2C#N)c(-c2ccccc2)n1 | 720

###

- measured-target: Nav1.7 (or SCN9A) channel; HEK cells stably transfected with hSCN9A (Homo sapiens, UniProt Q15858)
- Construct: expressed in transfected cells
- test: Nav1.7 block, PatchXpress 7000 automated whole-cell voltage clamp, estimated IC50 (EIC50)
- Type: cell-based
- test-context: estimated IC50; hSCN9A HEK cells, PatchXpress platform; Examples 283-814
measurement-name: IC50 (nM)

CCc1cc(-n2cccn2)ccc1Oc1ccc(S(=O)(=O)Nc2nccs2)cc1C#N | 1200
N#Cc1cc(S(=O)(=O)Nc2nccs2)ccc1Oc1ccc(Cn2cccn2)cc1F | 2600

[P] N#Cc1cc(S(=O)(=O)Nc2cscn2)ccc1Oc1ccc(Cl)cc1-c1ccnn1C1CNC1
[Q] Cn1nccc1-c1ccc(I)cc1Oc1ccc(S(=O)(=O)Nc2nccs2)cc1C#N
[R] O=S(=O)(Nc1ccncn1)c1cc(Cl)c(Oc2ccc(Cl)cc2C2CCNCC2)cc1F
[S] N#Cc1cc(S(=O)(=O)Nc2nccs2)ccc1Oc1ccc(Br)cc1-c1ccn[nH]1
IN: Put the entries in order of IC50, starting with the largest number. Respond with an ordered listing of the labels, as requested.
OUT: R, P, S, Q
(R: 78 nM, P: 38 nM, S: 20 nM, Q: 11 nM)

###

- measured-target: Nav1.7 (or SCN9A) channel; HEK cells stably transfected with hSCN9A (Homo sapiens, UniProt Q15858)
- Construct: expressed in transfected cells
- test: Nav1.7 block, PatchXpress 7000 automated whole-cell voltage clamp, estimated IC50 (EIC50)
- Assay type: cell-based
- test-context: PatchXpress platform; hSCN9A HEK cells held at V1/2 of inactivation; estimated IC50
measurement-name: IC50 (µM)

Here's what some known entries look like.
N#Cc1cc(S(=O)(=O)Nc2nccs2)ccc1Oc1cc(-c2ccccc2F)nn1CC(F)(F)F [Example 188] | 9.42
O=S(=O)(Nc1ncns1)c1cc(Cl)c(Oc2ccccc2-c2ccccc2)cc1F [Example 270] | 0.03
Cn1ccnc1NS(=O)(=O)c1ccc(Oc2ccccc2-c2ccccc2)c(C#N)c1 [Example 113] | 12.9

[A] Cn1nc(-c2ccccc2)cc1Oc1ccc(S(=O)(=O)Nc2ncns2)cc1C#N [Example 82]
[B] N#Cc1cc(S(=O)(=O)Nc2ccon2)ccc1Oc1ccccc1-c1ccccc1 [Example 110]
IN: Recorded IC50 values differ for A and B ; which one is higher? // caller expects the label of the chosen entry
OUT: A
(A: 37.2 µM, B: 4.27 µM)

###

- measured-target: Nav1.7 (or SCN9A) channel; HEK cells stably transfected with hSCN9A (Homo sapiens, UniProt Q15858)
- Construct: expressed in transfected cells
- test: Nav1.7 block, PatchXpress 7000 automated whole-cell voltage clamp, estimated IC50 (EIC50)
- Type: cell-based
- test-context: estimated IC50; hSCN9A HEK cells, PatchXpress platform; Examples 283-814
measurement-name: IC50 (nM)

The following molecules have reported results that may help.
CC(C)(C)n1nccc1-c1cc(F)ccc1Oc1ccc(S(=O)(=O)Nc2ncns2)cc1Cl [Example 476] | 170
CCn1nc(C(F)(F)F)cc1-c1ccc(Oc2ccc(S(=O)(=O)Nc3nccs3)cc2F)cc1 [Example 408] | 300

[1] Cn1nccc1-c1cc(F)ccc1Oc1cc(F)c(S(=O)(=O)Nc2ncc(Cl)s2)cc1F [Example 613]
[2] N#Cc1cc(S(=O)(=O)Nc2cscn2)ccc1Oc1ccc(Cl)cc1-c1cccc(N)n1 [Example 766]
[3] CN1CC(n2nccc2-c2cc(Cl)ccc2Oc2cc(F)c(S(=O)(=O)Nc3cscn3)cc2Cl)C1 [Example 730]
[4] COc1cccc(-c2cc(Oc3ccc(S(=O)(=O)Nc4ncc(F)s4)cc3C#N)ccc2Cl)c1 [Example 531]
[5] Cc1n[nH]cc1-c1cc(Cl)ccc1Oc1cc(F)c(S(=O)(=O)Nc2cscn2)cc1Cl [Example 662]
IN: Could you please order the items by IC50, going from the lowest number to the highest? Labels, requested order.
OUT: 3, 5, 1, 2, 4

###

- measured-target: Nav1.7 (or SCN9A) channel; HEK cells stably transfected with hSCN9A (Homo sapiens)
- Construct: expressed in transfected cells
- test: Nav1.7 block, PatchXpress 7000 automated whole-cell voltage clamp, estimated IC50 (EIC50)
- Assay type: cell-based
- test-context: PatchXpress platform; hSCN9A HEK cells held at V1/2 of inactivation; estimated IC50
measurement-name: IC50 (µM)

The cases that follow already have their IC50 on record.
N#Cc1cc(S(=O)(=O)Nc2ncns2)ccc1Oc1ccccc1-c1ccc(F)c(F)c1 | 0.36
NC(=O)c1cc(S(=O)(=O)Nc2nccs2)ccc1Oc1cnn(Cc2ccc(Cl)cc2)c1 | 2.4
Cn1cnnc1-c1cc(Cl)ccc1Oc1ccc(S(=O)(=O)Nc2nccs2)cc1C#N | 0.93
N#Cc1cc(S(=O)(=O)Nc2nccs2)ccc1Oc1cc(C2CC2)nn1-c1ccccc1F | 1.23
O=S(=O)(Nc1nccs1)c1ccc(Oc2cccc(Oc3ccccc3)c2)c(F)c1 | 11.5
N#Cc1cc(S(=O)(=O)Nc2ncns2)ccc1Oc1cc(C(F)(F)F)nn1-c1ccccc1 | 0.51
Cn1nccc1-c1cc(Cl)ccc1Oc1ccc(S(=O)(=O)Nc2nccs2)cc1F | 0.02
Cc1cccc(-c2cc(F)ccc2F)c1Oc1ccc(S(=O)(=O)Nc2ncns2)cc1C#N | 16.2

[I] CC(C)Oc1ccc(-c2cc(F)ccc2Oc2ccc(S(=O)(=O)Nc3nccs3)cc2C#N)cc1
[II] Cn1nccc1-c1ccccc1Oc1ccc(S(=O)(=O)Nc2ncns2)cc1C#N
IN: # compare IC50 for I vs II ; return the one with the smaller value Your answer should be the label attached to the chosen record.
OUT: II

###

- measured-target: Nav1.7 (or SCN9A) channel; HEK cells stably transfected with hSCN9A (Homo sapiens, UniProt Q15858)
- Construct: expressed in transfected cells
- test: Nav1.7 block, PatchXpress 7000 automated whole-cell voltage clamp, estimated IC50 (EIC50)
- Format: cell-based
- test-context: estimated IC50; hSCN9A HEK cells, PatchXpress platform; Examples 283-814
In this section, each of the molecules is paired with its reported IC50.

N#Cc1cnc(NS(=O)(=O)c2ccc(Oc3ccccc3-c3ccccc3)c(C#N)c2)nc1 | >10 µM
COC(=O)c1cc(Oc2ccc(S(=O)(=O)Nc3nccs3)cc2C#N)ccc1-n1cc(Cl)cn1 | >1 µM

With those in mind, consider the next molecule.
IN: Bench note: what IC50 did "Cc1cncnc1NS(=O)(=O)c1ccc(Oc2ccccc2-c2ccccc2)c(C#N)c1" show?
OUT: >10 µM
